biological target: PDE4A1 (Homo sapiens, UniProt P27815); construct: purchased SB Drug Discovery (Scotland, U.K.); host or cells: baculoviral system; test: PDE4A1 radiometric enzyme inhibition assay; type: biochemical; settings: compound at 1 µM; read-out: Inhibition of PDE Sub-Types (%) 4A1
Sequence (P27815 1-647 isoform P27815-4): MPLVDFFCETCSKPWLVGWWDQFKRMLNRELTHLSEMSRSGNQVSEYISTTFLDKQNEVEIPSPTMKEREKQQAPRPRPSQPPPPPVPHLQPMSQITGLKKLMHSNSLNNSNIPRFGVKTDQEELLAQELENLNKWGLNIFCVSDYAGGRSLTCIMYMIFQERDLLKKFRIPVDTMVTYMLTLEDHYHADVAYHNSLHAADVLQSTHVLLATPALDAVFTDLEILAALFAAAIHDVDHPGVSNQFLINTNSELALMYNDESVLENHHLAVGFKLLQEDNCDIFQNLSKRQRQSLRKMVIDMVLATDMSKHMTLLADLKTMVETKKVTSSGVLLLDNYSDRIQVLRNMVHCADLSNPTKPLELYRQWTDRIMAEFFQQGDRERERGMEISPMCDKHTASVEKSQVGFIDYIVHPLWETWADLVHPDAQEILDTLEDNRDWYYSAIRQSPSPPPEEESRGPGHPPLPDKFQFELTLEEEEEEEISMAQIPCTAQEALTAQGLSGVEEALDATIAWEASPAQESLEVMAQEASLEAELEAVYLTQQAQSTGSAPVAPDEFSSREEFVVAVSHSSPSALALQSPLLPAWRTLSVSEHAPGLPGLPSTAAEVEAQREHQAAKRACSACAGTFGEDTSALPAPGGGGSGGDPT
Endpoint: inhibition at 1 µM (%)
Give the number; % is assumed, so skip it.

As a guide, the following entries are already answered.
>>> measured_value("Cc1nc(-c2cc(OCC3(C)COC3)ccc2Cl)n2c1nnc1ccc(-c3ccc(F)nc3)cc12")
64.1
>>> measured_value("Cc1nc(-c2cc(OCC3(C)COC3)ccc2Cl)n2c1nnc1ccc(-c3ccnc(F)c3)cc12")
72.7

Find inhibition at 1 µM (PDE4A1 (Homo sapiens, UniProt P27815)) for the entry "COc1ccc(F)c(-c2nc(C)c3nnc4ccc(-c5cccnc5)cc4n23)c1" 13.9

Another compound: "COc1ccc(F)c(-c2nc(C)c3nnc4ccc(-c5ccncc5)cc4n23)c1" 86.8

Another compound: "COc1ccc(F)c(-c2nc(C)c3nnc4ccc(-c5ccnc(F)c5)cc4n23)c1" 54.2
